Entry source: patent US20260000597A1

# test system: AchR (Homo sapiens, UniProt P02708)
# Sequence (P02708 21-457): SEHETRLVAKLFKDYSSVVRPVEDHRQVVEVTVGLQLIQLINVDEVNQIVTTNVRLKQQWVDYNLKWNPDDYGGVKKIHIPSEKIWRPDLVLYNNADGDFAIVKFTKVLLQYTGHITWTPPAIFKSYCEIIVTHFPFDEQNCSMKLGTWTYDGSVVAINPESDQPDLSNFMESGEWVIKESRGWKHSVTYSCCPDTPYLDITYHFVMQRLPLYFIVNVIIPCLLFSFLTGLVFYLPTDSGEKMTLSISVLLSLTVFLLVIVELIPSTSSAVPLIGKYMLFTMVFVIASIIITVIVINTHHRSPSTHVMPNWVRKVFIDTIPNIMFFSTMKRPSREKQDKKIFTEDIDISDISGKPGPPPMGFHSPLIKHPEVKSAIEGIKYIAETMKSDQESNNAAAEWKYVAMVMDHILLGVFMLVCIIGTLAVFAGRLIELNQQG
# test summary: ELISA of screened peptide phages on AchR versus streptavidin (OD450)
# Assay type: binding
# protocol conditions: ELISA of selected 14-mer (L3) peptide phages on AchR, absorbance at 450 nm; Spep-2 positive control
Would you kindly list OD for each of these substances?
Give bare numbers.

Okay, here is my list. What is OD for each of these?
1. L3-8 (PICRWKRAPFKWYF; AchR binding peptide) [Peptide L3-8]
2. L3-16 (DYLRSRKMEERFQE; AchR binding peptide) [Peptide L3-16]
3. L3-68 (YSSKSRKLSPRTPR; AchR binding peptide) [Peptide L3-68]
4. L3-119 (TPLKSRKYWNKHAY; AchR binding peptide) [Peptide L3-119]

0.777
0.797
0.792
0.693
